A collection of compounds and their measured selectivity ratio
# ASSAY_SUMMARY: Therapeutic index, ratio of IC50 for human MT4 cells to EC50 for HIV1 NL4-3 infected in human MT4 cells
# Assay type: cell-based
# MEASUREMENT_PARAMETERS: read-out: Ratio IC50/EC50
Output spec: single numeric token, no unit.

Take a look at these entries with their results.
COc1ccc(N(Cc2c(OC(C)C)ccc3c(C)cc(=O)oc23)C(=O)[C@@]23CC[C@@](C)(C(=O)O2)C3(C)C)cc1; 15
CCOc1ccc2c(C)cc(=O)oc2c1COC(=O)[C@@]12CC[C@@](C)(C(=O)O1)C2(C)C; 1.87
COc1ccc2c(C)cc(=O)oc2c1COC(=O)[C@@]12CC[C@@](C)(C(=O)O1)C2(C)C; 1.71

Here is another compound to look at.
Can you look up the measured selectivity ratio of COC(=O)COc1ccc2c(C)cc(=O)oc2c1COC(=O)[C@@]12CC[C@@](C)(C(=O)O1)C2(C)C for me?
1.22

The reported measurements were obtained from ChEMBL document CHEMBL1166007.
